These data points were gathered from the supplement of paper PMC12494721.

Test system: Klebsiella aerogenes DSM 30053
Test: growth (OD595) fold change vs plate DMSO controls (fold change (ratio)); higher = more growth
Settings: incubation time: 27 h, anaerobic, 37 °C
Counter-ions that a name gives are not always drawn.
Measured property: growth
One number for each entry.

Below: 3 molecules and their reported growth.
CC(=O)c1ccc2c(c1)N(CCCN1CCC(CCO)CC1)c1ccccc1S2 [Piperacetazine] (20 µM): 0.138
NS(=O)(=O)c1cc(C(=O)O)cc(N2CCCC2)c1Oc1ccccc1 [Piretanide] (20 µM): 0.997
NS(=O)(=O)c1cc2c(cc1Cl)NC(CC1CCCC1)NS2(=O)=O (centres undefined) [Cyclopenthiazide] (20 µM): 0.98

# evaluate next
Request: Return reported growth for target or system Klebsiella aerogenes DSM 30053, item CCCCc1oc2ccc(NS(C)(=O)=O)cc2c1C(=O)c1ccc(OCCCN(CCCC)CCCC)cc1 [Dronedarone hydrochloride] (20 µM) .
Result: 1.02

====

Test system: Escherichia coli IAI1
Assay: growth (OD595) fold change vs plate DMSO controls (fold change (ratio)); higher = more growth
Settings: incubation time: 27 h, anaerobic, 37 °C
Where a name gives a salt, the structure may show the parent alone.
Measured property: growth
One number for each entry.

O=c1oc2ccccc2c(O)c1Cc1c(O)c2ccccc2oc1=O [Dicumarol] (20 µM): 0.961
CCCCNC(=N)NC(=N)N [Buformin] (20 µM): 0.988
C=C1[C@H](CO)[C@@H](O)C[C@@H]1n1cnc2c(=O)[nH]c(N)nc21 [Entecavir] (20 µM): 0.934

Give measured growth for every item shown.
1. OC[C@H]1O[C@@](CO)(O[C@H]2O[C@H](CO)[C@@H](O)[C@H](O)[C@H]2O)[C@@H](O)[C@@H]1O [Sucrose] (50 µM)
2. COc1ccc(-c2cc(=S)ss2)cc1 [Anethole-trithione] (20 µM)
3. CCN(CC)CCc1nc(-c2ccccc2)no1 [Oxolamine citrate salt] (20 µM)
4. O=C(O)c1ccccc1Nc1cccc(C(F)(F)F)c1 [Flufenamic acid] (20 µM)
5. CC(C)(Oc1ccc(CCNC(=O)c2ccc(Cl)cc2)cc1)C(=O)O [Bezafibrate] (20 µM)
6. CN(C(=O)C(Cl)Cl)c1ccc(OC(=O)c2ccco2)cc1 [Diloxanide furoate] (20 µM)

Result:
[0.938, 1.01, 0.976, 0.983, 1.01, 0.998]

====

Assign growth to each entry below.
Tested on: Klebsiella aerogenes DSM 30053
Assay: growth (OD595) fold change vs plate DMSO controls (fold change (ratio)); higher = more growth
Details: incubation time: 27 h, anaerobic, 37 °C
Structures can show the parent of a compound that is named as a salt.
Give bare numbers.

Below: 4 compounds and their reported growth.
C[C@@H](O[C@H]1OCCN(Cc2n[nH]c(=O)[nH]2)[C@H]1c1ccc(F)cc1)c1cc(C(F)(F)F)cc(C(F)(F)F)c1 [Aprepitant] (20 µM): 1
CC(=O)Nc1cccc(O)c1 [Metacetamol] (20 µM): 1.01
CC(=O)Oc1ccccc1C(=O)Oc1ccccc1C(=O)O [Acetylsalicylsalicylic acid] (20 µM): 0.995
O=C(CO)[C@@H](O)[C@H](O)[C@@H](CO)O[C@H]1O[C@H](CO)[C@@H](O)[C@H](O)[C@H]1O [Leucrose] (50 µM): 1.01

Give measured growth for every item shown.
1. C=CCc1ccc(OC)c(OC)c1 [Methyleugenol] (20 µM)
2. COC(=O)C1=C(C)NC(C)=C(C(=O)OCCN(C)Cc2ccccc2)C1c1cccc([N+](=O)[O-])c1 (configuration not stated) [Nicardipine hydrochloride] (20 µM)
3. OC[C@H]1O[C@H](O[C@]2(CCl)O[C@H](CCl)[C@@H](O)[C@@H]2O)[C@H](O)[C@@H](O)[C@H]1Cl [Sucralose] (50 µM)

Result:
1: 0.993; 2: 1.01; 3: 1.03
